Numbers sourced from patent US20240391954A1.

PROCEDURE SUMMARY: Plasma protein binding (Centrifree ultrafiltration)
Assay type: in vitro ADME
CONDITION NOTES: 0.1 uM
Description: Solutions of test compound in DMSO were prepared at 1 mM, 100 uM and 10 uM, 5 ul of each solution of test compound was added to 495 uL plasma, and incubated at 25° C. for 5 min. Sample was added to a Centrifree® device, then centrifuged at 2000× g for 20 min to obtain desired filtrate volume. Initial plasma samples and ultrafiltrates were subjected to LC-MS/MS. % Free peptide=(concentration of ultrafiltrates/concentration of plasma)×100%. % Bound=100%−% Free
Positions of bridges follow the written chain, without caps; N, C: chain ends. Non-standard residues stand in square brackets, D forms with d. Residues, ends and D or L forms follow the SMILES beside them. dPhe(4-F) = N[C@H](Cc1ccc(F)cc1)C(=O)O
Each record here notes measured fraction unbound at 0.1 uM.
Write the number on its own, no unit after it.

[
  {
    "COMPOUND": "CC(=O)N[C@@H](CCCNC(=N)N)C(=O)N[C@H]1CSSC[C@@H](C(N)=O)NC(=O)[C@@H](Cc2c[nH]c3ccccc23)NC(=O)[C@H](CCCNC(=N)N)NC(=O)[C@@H](Cc2ccccc2)NC(=O)[C@H](CCCNC(=N)N)NC(=O)[C@H](C)NC1=O [CTX-1268] (Ac-RCAR[dF]R[dW]C-NH2; disulfide 2-8)",
    "fraction unbound at 0.1 uM": 0.48
  }
]

Proceeding to the next compound to report its fraction unbound at 0.1 uM.
Query CC(=O)N[C@@H](CCCNC(=N)N)C(=O)N[C@H]1CSSC[C@@H](C(N)=O)NC(=O)[C@@H](Cc2c[nH]c3ccccc23)NC(=O)[C@H](CCCNC(=N)N)NC(=O)[C@@H](Cc2ccc(F)cc2)NC(=O)[C@H](CCCNC(=N)N)NC(=O)[C@@H](C)NC1=O [CTX-1236] (Ac-RC[dA]R[dPhe(4-F)]R[dW]C-NH2; disulfide 2-8) yields fraction unbound at 0.1 uM of 0.55
